Just for reference, patent US20090048218A1 is where these values come from.

Below, each entry is listed with its recorded PR in vivo ED50 (pregnancy-maintaining dose).
Experimental system: PR (Rattus norvegicus, UniProt Q63449)
Construct: The maintenance of pregnancy test on ovarectomized rats serves for the determination of the peripheral gestagenic activity of a compound; from tissue; host or cells: whole animal: pregnant, ovariectomized rats
Sequence (Q63449 1-923): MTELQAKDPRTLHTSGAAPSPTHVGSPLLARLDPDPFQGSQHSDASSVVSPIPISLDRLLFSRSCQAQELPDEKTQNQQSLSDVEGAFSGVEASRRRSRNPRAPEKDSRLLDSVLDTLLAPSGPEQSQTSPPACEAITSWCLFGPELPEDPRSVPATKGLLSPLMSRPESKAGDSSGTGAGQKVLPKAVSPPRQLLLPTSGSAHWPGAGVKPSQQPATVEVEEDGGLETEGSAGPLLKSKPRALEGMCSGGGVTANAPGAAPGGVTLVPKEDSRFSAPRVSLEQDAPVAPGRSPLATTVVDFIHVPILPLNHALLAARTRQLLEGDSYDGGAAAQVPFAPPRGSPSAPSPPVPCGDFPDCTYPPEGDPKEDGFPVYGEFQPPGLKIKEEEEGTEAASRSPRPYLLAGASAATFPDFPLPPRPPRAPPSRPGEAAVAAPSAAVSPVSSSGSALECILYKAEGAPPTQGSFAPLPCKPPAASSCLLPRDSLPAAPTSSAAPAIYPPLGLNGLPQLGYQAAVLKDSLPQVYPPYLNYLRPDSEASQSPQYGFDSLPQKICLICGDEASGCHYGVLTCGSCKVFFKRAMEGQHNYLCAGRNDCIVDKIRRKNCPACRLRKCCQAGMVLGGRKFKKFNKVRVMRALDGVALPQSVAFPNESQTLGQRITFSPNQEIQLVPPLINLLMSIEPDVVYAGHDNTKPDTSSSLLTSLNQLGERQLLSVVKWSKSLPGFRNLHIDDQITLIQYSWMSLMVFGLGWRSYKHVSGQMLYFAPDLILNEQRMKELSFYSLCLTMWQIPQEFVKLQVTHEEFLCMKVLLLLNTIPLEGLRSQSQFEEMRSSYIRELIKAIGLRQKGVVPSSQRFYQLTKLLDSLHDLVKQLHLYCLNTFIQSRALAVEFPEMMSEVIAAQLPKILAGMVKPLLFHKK
Protocol notes: maintenance of pregnancy test on the rat
Format: in vivo
Assay conditions: ovarectomized pregnant rats, s.c. once daily from day 8 to day 15 or 21, with oestrone 5 μg/kg/day
Procedure: Carrying out the maintenance of pregnancy test on the rat: In pregnant rats, the removal of the corpora lutea or oophorectomy induces an abortion. By means of the exogenous administration of progestins (gestagens) in combination with a suitable dose of an oestrogen, the maintenance of pregnancy is possible. […] Rats were paired overnight during proestrus. […] The presence of the sperm was evaluated here as day 1 of a commencing pregnancy. […]
All answers are understood in mg/kg/d s.c., so give the number only.

Memo: CC[C@]12CC[C@H]3[C@@H](CCC4=CC(=O)CC[C@@H]43)[C@@H]1[C@@H]1C[C@@H]1[C@@H]2C#N (single isomer, unassigned) , reported PR in vivo ED50 (pregnancy-maintaining dose): 0.01

Memo: CC[C@]12CC[C@H]3[C@@H]([C@H]4C[C@H]4C4=CC(=O)CC[C@@H]43)[C@@H]1[C@@H]1C[C@@H]1[C@@H]2C#N , reported PR in vivo ED50 (pregnancy-maintaining dose): 0.1

Memo: CC[C@]12CC[C@H]3[C@@H]([C@@H]4C[C@@H]4C4=CC(=O)CC[C@@H]43)[C@@H]1[C@@H]1C[C@@H]1[C@]2(C)C#N , reported PR in vivo ED50 (pregnancy-maintaining dose): 1.1

Memo: CC[C@]12CC[C@H]3[C@@H](CCC4=CC(=O)CC[C@@H]43)[C@@H]1[C@@H]1C[C@@H]1[C@]2(C)C#N , reported PR in vivo ED50 (pregnancy-maintaining dose): 0.1

Memo: CC[C@]12CC[C@H]3[C@@H](CCC4=CC(=O)CC[C@@H]43)[C@@H]1CC[C@@H]2C#N , reported PR in vivo ED50 (pregnancy-maintaining dose): 2.3

* * *

Experimental system: mineralcorticoid receptor (MR) (Homo sapiens, UniProt P08235)
Sequence (P08235 whole entry): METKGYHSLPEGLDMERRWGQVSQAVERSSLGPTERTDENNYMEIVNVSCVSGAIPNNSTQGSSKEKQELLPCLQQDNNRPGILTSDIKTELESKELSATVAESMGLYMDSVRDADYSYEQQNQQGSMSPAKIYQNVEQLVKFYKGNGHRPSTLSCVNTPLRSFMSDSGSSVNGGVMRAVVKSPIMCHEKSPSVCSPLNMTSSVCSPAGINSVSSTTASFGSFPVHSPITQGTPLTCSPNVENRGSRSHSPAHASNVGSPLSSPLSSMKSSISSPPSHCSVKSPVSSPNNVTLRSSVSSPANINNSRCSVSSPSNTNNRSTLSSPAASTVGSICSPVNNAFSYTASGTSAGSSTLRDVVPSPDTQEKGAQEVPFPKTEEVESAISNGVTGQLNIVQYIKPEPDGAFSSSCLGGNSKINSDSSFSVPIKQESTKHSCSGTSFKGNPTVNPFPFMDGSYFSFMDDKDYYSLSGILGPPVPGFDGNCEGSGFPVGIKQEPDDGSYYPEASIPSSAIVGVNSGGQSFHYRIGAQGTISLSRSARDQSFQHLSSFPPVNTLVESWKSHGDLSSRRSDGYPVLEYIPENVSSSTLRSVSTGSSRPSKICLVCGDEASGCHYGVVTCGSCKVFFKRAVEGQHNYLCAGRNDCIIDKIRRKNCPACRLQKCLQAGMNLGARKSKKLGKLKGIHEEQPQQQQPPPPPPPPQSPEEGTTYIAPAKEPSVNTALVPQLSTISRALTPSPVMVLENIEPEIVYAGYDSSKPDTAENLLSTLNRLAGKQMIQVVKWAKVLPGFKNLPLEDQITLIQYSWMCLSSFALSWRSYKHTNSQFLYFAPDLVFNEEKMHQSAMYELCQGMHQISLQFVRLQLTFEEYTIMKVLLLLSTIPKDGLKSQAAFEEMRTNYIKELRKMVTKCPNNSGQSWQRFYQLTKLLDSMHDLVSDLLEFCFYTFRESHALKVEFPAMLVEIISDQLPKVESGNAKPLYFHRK
Protocol notes: MR antagonism, luciferase reporter cell line assay
Type: cell-based
Measured quantity: pIC50
Please note pIC50 is a logarithmic value: minus log10 of concentration in mol/L. Answer with that number alone.

Sample CC[C@]12CC[C@H]3[C@@H](CCC4=CC(=O)CC[C@@H]43)[C@@H]1[C@@H]1C[C@@H]1[C@@H]2C#N (single isomer, unassigned) , system: mineralcorticoid receptor (MR) (Homo sapiens, UniProt P08235). Its pIC50 is 7.74

* * *

Experimental system: mineralcorticoid receptor (MR) (Homo sapiens, UniProt P08235)
Protocol notes: MR antagonism, luciferase reporter cell line assay
Format: cell-based
Assay conditions: reporter cell lines, 16 hours incubation, luciferase luminescence, triplicate; read-out: MR antagonism IC50
Measured quantity: pIC50
Please note pIC50 is a logarithmic value: minus log10 of concentration in mol/L. Answer with that number alone.

Record smiles | pIC50
CC[C@]12CC[C@H]3[C@@H]([C@H](C)CC4=CC(=O)CC[C@@H]43)[C@@H]1CC[C@@H]2C#N | 7.80

Memo: CC[C@]12CC[C@H]3[C@@H]([C@H]4C[C@H]4C4=CC(=O)CC[C@@H]43)[C@@H]1[C@@H]1C[C@@H]1[C@@H]2C#N , reported pIC50: 8.03

Memo: CC[C@]12CC[C@H]3[C@@H](CCC4=CC(=O)CC[C@@H]43)[C@@H]1CC[C@@H]2C#N , reported pIC50: 8.04
